Value source: patent US20250276075A1

tested.on: T1, Axl (Homo sapiens, UniProt P30530)
T1 sequence (P30530 26-451 limits assumed): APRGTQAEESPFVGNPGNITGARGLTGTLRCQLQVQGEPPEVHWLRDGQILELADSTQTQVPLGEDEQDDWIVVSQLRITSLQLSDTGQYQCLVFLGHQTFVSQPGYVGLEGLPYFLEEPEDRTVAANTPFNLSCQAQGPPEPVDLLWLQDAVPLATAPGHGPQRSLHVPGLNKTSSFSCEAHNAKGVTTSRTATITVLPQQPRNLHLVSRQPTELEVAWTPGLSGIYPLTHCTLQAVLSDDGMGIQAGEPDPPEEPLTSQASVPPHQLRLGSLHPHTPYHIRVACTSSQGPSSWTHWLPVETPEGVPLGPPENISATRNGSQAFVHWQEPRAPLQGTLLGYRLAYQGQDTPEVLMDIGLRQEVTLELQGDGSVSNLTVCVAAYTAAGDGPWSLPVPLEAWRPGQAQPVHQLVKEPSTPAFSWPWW
measurement.notes: Affinity ELISA of CPE mutant antibodies for binding to Axl at pH 6.0 over pH 7.4
experimental.parameters: heavy chain variable region mutants; 1:3 dilution
quantity.name: Affinity ELISA CPE mutant ratio (1:3, pH 6.0/7.4)

>>> readout_value("HC-H100D (antibody, V domains shown) VH: EVQLVQSGAEVKKPGATVKISCKVSGYSFTGHTMNWIRQPPGKGLEWIGLIKPSNGGTSYNQKFKGRVTISADKSISTAYLQWSSLKASDTAMYYCAHGDYESYFAMDYWGQGTLVTVSS VL: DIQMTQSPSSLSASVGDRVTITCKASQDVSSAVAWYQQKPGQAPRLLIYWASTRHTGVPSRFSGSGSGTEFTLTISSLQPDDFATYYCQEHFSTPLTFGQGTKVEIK")
2.416
>>> readout_value("HC-E102Y (antibody, V domains shown) VH: EVQLVQSGAEVKKPGATVKISCKVSGYSFTGHTMNWIRQPPGKGLEWIGLIKPSNGGTSYNQKFKGRVTISADKSISTAYLQWSSLKASDTAMYYCAHGHYYSYFAMDYWGQGTLVTVSS VL: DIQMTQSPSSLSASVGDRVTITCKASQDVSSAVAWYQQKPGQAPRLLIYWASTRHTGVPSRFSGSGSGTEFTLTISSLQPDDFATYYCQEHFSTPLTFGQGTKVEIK")
2.610
>>> readout_value("HC-E102M (antibody, V domains shown) VH: EVQLVQSGAEVKKPGATVKISCKVSGYSFTGHTMNWIRQPPGKGLEWIGLIKPSNGGTSYNQKFKGRVTISADKSISTAYLQWSSLKASDTAMYYCAHGHYMSYFAMDYWGQGTLVTVSS VL: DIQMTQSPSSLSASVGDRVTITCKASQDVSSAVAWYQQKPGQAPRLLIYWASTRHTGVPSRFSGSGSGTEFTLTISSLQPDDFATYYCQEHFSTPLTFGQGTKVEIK")
2.079
